Assay target: Dbp2 WT (Saccharomyces cerevisiae, UniProt P24783 1-546)
Sequence (P24783 whole entry): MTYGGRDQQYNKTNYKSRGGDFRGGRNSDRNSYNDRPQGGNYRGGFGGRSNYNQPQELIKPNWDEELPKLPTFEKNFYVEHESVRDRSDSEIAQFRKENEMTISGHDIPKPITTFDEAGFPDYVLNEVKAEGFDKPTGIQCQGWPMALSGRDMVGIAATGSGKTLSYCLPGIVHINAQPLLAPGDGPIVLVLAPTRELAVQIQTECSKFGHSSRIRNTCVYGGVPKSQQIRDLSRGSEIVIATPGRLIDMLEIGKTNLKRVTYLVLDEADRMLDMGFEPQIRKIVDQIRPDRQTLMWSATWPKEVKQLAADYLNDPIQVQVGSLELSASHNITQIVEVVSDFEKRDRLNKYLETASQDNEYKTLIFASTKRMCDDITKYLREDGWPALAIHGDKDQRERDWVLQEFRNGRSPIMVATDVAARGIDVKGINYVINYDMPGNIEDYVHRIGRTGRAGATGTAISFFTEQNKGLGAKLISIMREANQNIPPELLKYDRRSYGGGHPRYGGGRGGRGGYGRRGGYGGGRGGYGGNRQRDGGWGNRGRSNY
Method description: fluorescence anisotropy; Anisotropy: 25 mM Tris-HCl pH 7.5, 20 mM NaCl/30 mM KCl, 2 mM MgCl2, 1 mM DTT, 5 nM labelled nucleic acid, 25 C, 5 min; EMSA: 25 mM Tris-HCl pH 7.5, 30 mM KCl
Condition info: protein: recombinant; tags: His6-MBP removed by TEV; label: 3' FAM on strand 2; blunt
Assay endpoint: pKd
In simple prose, pKd is minus the logarithm base ten of a concentration in moles per litre.

What does the record list as pKd for D-D12 (dsDNA) DNA 1: CGTCGAGCAGAG DNA 2: CTCTGCTCGACG ? 6.75

Origin of values: paper PMC10193013
